study_target: T1, human CCR8 (human, UniProt P51685 1-355)
T1 construct: Native CCR8 on human PBMC (CCR8+ CD3+ or CCR8+ CD4+ lymphocytes); also called chemokine (C-C motif) receptor 8
T1 sequence (P51685 whole entry): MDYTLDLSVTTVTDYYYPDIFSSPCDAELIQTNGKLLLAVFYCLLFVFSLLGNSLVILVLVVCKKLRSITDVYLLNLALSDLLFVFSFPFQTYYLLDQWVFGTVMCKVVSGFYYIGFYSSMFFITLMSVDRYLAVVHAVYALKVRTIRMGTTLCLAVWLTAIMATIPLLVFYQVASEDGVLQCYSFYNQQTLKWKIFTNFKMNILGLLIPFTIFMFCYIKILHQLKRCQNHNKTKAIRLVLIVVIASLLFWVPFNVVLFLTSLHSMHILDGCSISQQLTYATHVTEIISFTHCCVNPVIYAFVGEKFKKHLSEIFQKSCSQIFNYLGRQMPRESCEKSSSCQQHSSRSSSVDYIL
assay_remarks: flow blocking, PBMC CCR8+CD4+; competitor PE-AB2
property_measured: % Blocking (%)
Report the value in % with no unit label.

Kindly note the recorded % Blocking for AB14 (antibody, V domains shown, Hybridoma monoclonal; Same VH/VL entries as AB15; also called antibody 14; clone 14) VH: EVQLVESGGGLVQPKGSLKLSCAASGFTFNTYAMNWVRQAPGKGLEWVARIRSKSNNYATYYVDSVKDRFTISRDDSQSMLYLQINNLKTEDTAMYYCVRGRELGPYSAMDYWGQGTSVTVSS VL: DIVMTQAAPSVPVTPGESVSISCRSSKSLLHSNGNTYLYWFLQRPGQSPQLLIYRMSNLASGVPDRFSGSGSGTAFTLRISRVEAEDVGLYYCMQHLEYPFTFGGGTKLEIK , which is -10.4

Kindly note the recorded % Blocking for AB3 (antibody, V domains shown, Hybridoma monoclonal; also called antibody 3; clone 3) VH: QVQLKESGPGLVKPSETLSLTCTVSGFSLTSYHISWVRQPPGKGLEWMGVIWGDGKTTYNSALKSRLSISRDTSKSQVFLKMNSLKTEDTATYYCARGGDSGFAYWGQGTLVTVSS VL: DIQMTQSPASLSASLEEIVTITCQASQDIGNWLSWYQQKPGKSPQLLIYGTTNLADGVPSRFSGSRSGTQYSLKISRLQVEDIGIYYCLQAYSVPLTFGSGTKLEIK , which is 98.8

Kindly note the recorded % Blocking for AB5 (antibody, V domains shown, Hybridoma monoclonal; Same VH/VL entries as AB6; also called antibody 5; clone 5) VH: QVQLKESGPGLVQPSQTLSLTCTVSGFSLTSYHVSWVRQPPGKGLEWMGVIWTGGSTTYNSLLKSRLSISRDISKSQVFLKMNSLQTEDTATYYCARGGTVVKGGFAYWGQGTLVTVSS VL: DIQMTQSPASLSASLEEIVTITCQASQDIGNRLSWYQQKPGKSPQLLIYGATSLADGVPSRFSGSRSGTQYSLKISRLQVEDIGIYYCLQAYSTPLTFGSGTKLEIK , which is 98.8

// next item, % Blocking requested
Kindly note the recorded % Blocking for AB10 (antibody, V domains shown, Hybridoma monoclonal; also called antibody 10; clone 10) VH: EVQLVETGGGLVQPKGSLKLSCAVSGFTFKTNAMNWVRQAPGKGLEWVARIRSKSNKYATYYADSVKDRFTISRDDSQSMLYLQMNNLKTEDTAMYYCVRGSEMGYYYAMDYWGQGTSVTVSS VL: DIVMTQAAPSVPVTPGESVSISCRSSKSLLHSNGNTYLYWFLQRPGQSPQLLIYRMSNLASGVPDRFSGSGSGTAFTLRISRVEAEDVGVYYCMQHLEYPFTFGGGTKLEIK , which is -40.2
